Every entry's value here was drawn from ChEMBL document CHEMBL1139651.

Would you kindly list minimal effective dose for each of these molecules?
System: Rattus norvegicus
Assay: Antiarrhythmic activity in iv dosed rat
Assay type: functional
Conditions: Heart, read-out: MED
Enter your answer as a number in µg/kg; do not include the unit.

INPUT: Endpoint output: minimal effective dose of O=C1NC(c2ccccc2)=C([N+](=O)[O-])C(c2cccc([N+](=O)[O-])c2)N1 (configuration not stated) . Value?
OUTPUT: 0.045

INPUT: Here is the next molecule: O=C1NC(c2ccccc2)=C([N+](=O)[O-])C(c2cccnc2)N1 (configuration not stated)
OUTPUT: 35

INPUT: // repeat for O=C1NC(c2ccccc2)=C([N+](=O)[O-])C(c2cccc(F)c2)N1 (configuration not stated) and report
OUTPUT: 0.35

INPUT: Proceed to O=C1NC(c2ccccc2)=C([N+](=O)[O-])C(c2cccs2)N1 (configuration not stated)
OUTPUT: 3500

INPUT: What do we get for `COC(=O)C1=C(C)NC(C)=C(C(=O)OC)C1c1ccccc1[N+](=O)[O-]` ?
OUTPUT: 3500

INPUT: Further, for O=C1NC(c2ccccc2)=C([N+](=O)[O-])C(c2ccccc2)N1 (configuration not stated) ?
OUTPUT: 35

INPUT: Next up: O=C1NC(c2ccccc2)=C([N+](=O)[O-])C(c2ccc(O)cc2)N1 (configuration not stated)
OUTPUT: 35

###

I'd appreciate it if you could supply LD50 values for the items below.
Tested on: Rattus norvegicus
Assay: Antiarrhythmic activity in iv dosed rat
Format: functional
Conditions: Heart

INPUT: Reported LD50, molecule O=C1NC(c2ccccc2)=C([N+](=O)[O-])C(c2cccnc2)N1 (configuration not stated) : ____
OUTPUT: > 1000 mg/kg

INPUT: Then this molecule: COC(=O)C1=C(C)NC(C)=C(C(=O)OC)C1c1ccccc1[N+](=O)[O-] [NIFEDIPINE]
OUTPUT: 210 mg/kg

INPUT: Then this molecule: O=C1NC(c2ccccc2)=C([N+](=O)[O-])C(c2ccccc2)N1 (configuration not stated)
OUTPUT: > 5000 mg/kg

INPUT: Then O=C1NC(c2ccccc2)=C([N+](=O)[O-])C(c2cccc(F)c2)N1 (configuration not stated) ?
OUTPUT: > 5000 mg/kg

INPUT: Item: O=C1NC(c2ccccc2)=C([N+](=O)[O-])C(c2cccs2)N1 (configuration not stated)
OUTPUT: > 1000 mg/kg

INPUT: And the next one, O=C1NC(c2ccccc2)=C([N+](=O)[O-])C(c2ccc(O)cc2)N1 (configuration not stated) ?
OUTPUT: > 5000 mg/kg

INPUT: What about O=C1NC(c2ccccc2)=C([N+](=O)[O-])C(c2cccc([N+](=O)[O-])c2)N1 (configuration not stated) ?
OUTPUT: > 1000 mg/kg
